All values here come from ChEMBL document CHEMBL1201862.

test system: HCC 2998; assay: NCI tumour cell line growth inhibition, 48 h
Active and inactive are the calls of the source. Rule as the data show it: active = GI50 up to about 1.1 µM and inactive = higher.
Please reply with one of these outcomes: true (1) = active, false (0) = inactive

# MOLECULE, LABEL_CLASS
data = [
    ("Cn1cnc([N+](=O)[O-])c1Sc1nnnn1C", "false (0)"),
    ("O=C(O/N=C1/CCCC/C1=C\\c1ccccc1)c1ccccc1", "false (0)"),
    ("OCC1OC(n2ccc3cnccc32)CC1O (stereo not drawn)", "false (0)"),
]

Query: Could you check what this test reported for O=[N+]([O-])c1ccc(OP(=O)(O)OCC2OC(CP(=O)(O)O)C(O)C2O)cc1 (stereo not drawn) ?
Response: false (0)

Query: Name the outcome recorded for CCOC(=O)Nc1ccc(S(=O)(=O)NCCCl)cc1.CCOC(=O)Nc1ccc(S(=O)(=O)NCCCl)cc1.O=C(O)c1ccc(/N=N/Cl)cc1O in the assay.
Response: false (0)

Query: Would you mind telling me which call this test gave Cc1ccc(S(=O)(=O)N2CCN(S(=O)(=O)c3ccc(C)cc3)Cc3ccccc3C2)cc1 ?
Response: false (0)

Query: Which result was noted for this molecule in the test: CN(C)CCCNc1c2c(nc3ccc(Cl)cc13)CCCC2
Response: false (0)

Query: Call for entry CC(=O)NNc1nc(C)c(C(=O)NNC(=O)C(=O)Nc2c(Cl)cc([N+](=O)[O-])cc2Cl)s1 :
Response: false (0)

----------
Consider the following molecules and their measured GI50 readings.
test system: NCI-H522; assay: NCI tumour cell line growth inhibition, 48 h
Calls of active or inactive are those of the source. No stated cut-off is given here; in the data, active = GI50 up to about 1.1 µM and inactive = higher.

Consider the following illustrative entries.
# MOLECULE, TARGET_DESC, GI50
measured = [
    ("Clc1cc(Cl)c2ns[s+]c2c1Cl", "NCI-H522", "> 100 µM (inactive)"),
    ("CC(C)=C=CC(C)(C)NS(=O)(=O)NC(C)(C)C=C=C(C)C", "NCI-H522", "56.6 µM (inactive)"),
    ("CCOC(=O)Nc1ccc(S(=O)(=O)NCCCl)cc1.CCOC(=O)Nc1ccc(S(=O)(=O)NCCCl)cc1.O=C(O)c1ccc(/N=N/Cl)cc1O", "NCI-H522", "> 100 µM (inactive)"),
]

Next, consider the following molecule.
Entry O=C(/C=C/c1ccc(O)c(O)c1)c1cc(O)cc(O)c1 , GI50 reported as 1.71 µM (inactive)

----------
system: BT-549; test: NCI tumour cell line growth inhibition, 48 h
Calls of active or inactive are those of the source. Rule as the data show it: active = GI50 up to about 1.1 µM and inactive = higher.
Please state which outcome applies, choosing from active, inactive

# MOLECULE, LABEL_CLASS
records = [
    ("C(=N\\c1ccc(-c2nc3ccccc3s2)cc1)/c1ccco1", "inactive"),
]

Query: Recorded test call requested for CC(=O)Nc1ccc2cc3[nH]c4cc(NC(C)=O)ccc4c3nc2c1
Response: inactive

Query: Hi, sorry to bother you, what did the test record for COC12C(COC(=O)NCCO)C3=C(C(=O)C(C)=C(N)C3=O)N1CC1NC12 (configuration not stated) ?
Response: inactive

Query: So what was the verdict on C=C1CC(COc2ccc3c(C)cc(=O)oc3c2)(c2ccccc2)OC1=O (configuration not stated) in this test?
Response: inactive

Query: For this molecule, state the assay outcome: COc1cc(S(=O)(=O)Nc2nc(-c3ccc(N4C(=O)/C(=C\c5cccs5)N=C4c4ccccc4)cc3)cs2)ccc1Cl
Response: inactive

Query: Please indicate how the test categorized COc1cc(NCc2ccc3n2-c2ccccc2OC3)cc(OC)c1OC .
Response: inactive

Query: GET /call?item= COc1cc2cc(C(=O)N3CC(CCl)c4ccc(N(C)C)cc43)[nH]c2c(OC)c1OC (configuration not stated) returns the recorded outcome of this test.
Response: active

Query: Status in this test for COC(=O)C1=CON2C3CC4CC(C3)CC(C4)C12C (configuration not stated) ?
Response: inactive

Query: Could you check what this test reported for COc1ccc2c(Cl)cc(NC(=S)Nc3ccccc3)nc2c1 ?
Response: inactive

Query: # outcome recorded in this test, key = CC1(CNCc2ccccc2)CC(CCc2ccccc2)N(C(=O)c2ccc([N+](=O)[O-])cc2)C1Cc1ccc(O)cc1 (configuration not stated)
Response: inactive

Query: Hello, I am checking results. What call was entered for COc1ccc(NCC(=O)Nn2c(-c3ccccc3)nc3ccccc3c2=O)cc1 ?
Response: inactive

Query: Tell me the assay call for CCCCC(CCCC)=NNC(=S)SC please.
Response: inactive

Query: Record lookup: outcome of this test for CCNC(=S)N/N=C/c1cc([N+](=O)[O-])ccc1O ?
Response: inactive

Query: In this assay, the call recorded for Oc1ccccc1/C=N/c1nc2cc3sc(/N=C/c4ccccc4O)nc3cc2s1 was what?
Response: inactive

Query: Which outcome was assigned to O=[N+]([O-])c1cc([N+](=O)[O-])c(Nn2c3ccccc3c3ccccc32)c([N+](=O)[O-])c1 in this test?
Response: inactive

Query: recorded result category for [N-]=[N+]=NC1C(O)C(CO)OC1n1ccc(N)nc1=O (configuration not stated) in this test
Response: inactive

Query: Short answer needed: outcome of this test for S=C(c1c[nH]c2ccccc12)N1CCN(c2ccccc2)CC1 ?
Response: inactive

Query: Short answer needed: outcome of this test for CNC(=O)C1(N)c2ccccc2C=Cc2ccccc21 ?
Response: inactive

Query: Hi, do you know how O=C(/C=C/c1ccc2c(c1)OCO2)c1ccccc(=O)c1O came out in this test?
Response: inactive
